MEASUREMENT TARGET: UniProtKB P11362
Sequence (P11362 whole entry): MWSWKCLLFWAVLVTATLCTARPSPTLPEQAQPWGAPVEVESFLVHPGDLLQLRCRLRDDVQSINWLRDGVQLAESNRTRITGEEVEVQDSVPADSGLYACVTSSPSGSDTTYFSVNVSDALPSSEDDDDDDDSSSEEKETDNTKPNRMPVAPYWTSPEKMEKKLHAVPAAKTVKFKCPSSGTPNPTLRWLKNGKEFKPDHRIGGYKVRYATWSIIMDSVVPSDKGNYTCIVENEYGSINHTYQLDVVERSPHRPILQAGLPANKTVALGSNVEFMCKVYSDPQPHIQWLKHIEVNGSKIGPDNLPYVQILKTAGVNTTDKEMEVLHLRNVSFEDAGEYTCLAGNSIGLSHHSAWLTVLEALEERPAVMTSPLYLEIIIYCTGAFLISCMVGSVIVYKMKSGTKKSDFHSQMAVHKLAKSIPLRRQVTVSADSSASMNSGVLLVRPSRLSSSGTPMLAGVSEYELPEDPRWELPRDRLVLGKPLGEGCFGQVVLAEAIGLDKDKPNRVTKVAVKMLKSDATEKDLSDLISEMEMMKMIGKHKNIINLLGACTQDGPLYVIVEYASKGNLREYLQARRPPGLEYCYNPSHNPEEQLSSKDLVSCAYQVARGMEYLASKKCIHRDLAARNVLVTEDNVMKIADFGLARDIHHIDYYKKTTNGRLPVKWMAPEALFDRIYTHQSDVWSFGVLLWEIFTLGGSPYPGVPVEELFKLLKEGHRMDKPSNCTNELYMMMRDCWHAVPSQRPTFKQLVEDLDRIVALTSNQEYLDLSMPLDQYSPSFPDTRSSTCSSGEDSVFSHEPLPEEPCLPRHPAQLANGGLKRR
The source made the active and inactive calls.
Respond with a class label; see label 1 for active, label 0 for inactive

Consider the following illustrative entries.
| MOLECULE | CLASS NAME |
| --- | --- |
| Cc1ccc(NC(=O)c2ccc(CN3CC[C@H](N(C)C)C3)c(C(F)(F)F)c2)cc1Nc1nccc(-c2cncnc2)n1 | label 0 |
| COc1ccc(-c2ccc3c(N4CCOC[C@@H]4C)nc(N4CCOC[C@@H]4C)nc3n2)cc1CO | label 0 |
| CNC(=O)c1ccc(C)c(-n2c(C)cc(OCc3ccc(F)cc3F)c(Br)c2=O)c1 | label 0 |
| Cc1cc([C@@H](C)Nc2ccccc2C(=O)O)c2nc(N3CCOCC3)cc(=O)n2c1 | label 0 |

Tell me the assay call for `C=CC(=O)N1CCC(Oc2cc3c(Nc4ccc(Cl)c(Cl)c4F)ncnc3cc2OC)CC1` please.
label 0

Status in this test for O=C(Nc1ccc(-c2ccnc(Nc3ccc(N4CCOCC4)cc3)n2)cc1)C1CCCN1 (configuration not stated) ?
label 0

I would be grateful if you could indicate the recorded call for `CCS(=O)(=O)N1CC(CC#N)(n2cc(-c3ncnc4[nH]ccc34)cn2)C1` .
label 0

###

MEASUREMENT TARGET: UniProtKB Q9NWZ3
Sequence (Q9NWZ3 whole entry): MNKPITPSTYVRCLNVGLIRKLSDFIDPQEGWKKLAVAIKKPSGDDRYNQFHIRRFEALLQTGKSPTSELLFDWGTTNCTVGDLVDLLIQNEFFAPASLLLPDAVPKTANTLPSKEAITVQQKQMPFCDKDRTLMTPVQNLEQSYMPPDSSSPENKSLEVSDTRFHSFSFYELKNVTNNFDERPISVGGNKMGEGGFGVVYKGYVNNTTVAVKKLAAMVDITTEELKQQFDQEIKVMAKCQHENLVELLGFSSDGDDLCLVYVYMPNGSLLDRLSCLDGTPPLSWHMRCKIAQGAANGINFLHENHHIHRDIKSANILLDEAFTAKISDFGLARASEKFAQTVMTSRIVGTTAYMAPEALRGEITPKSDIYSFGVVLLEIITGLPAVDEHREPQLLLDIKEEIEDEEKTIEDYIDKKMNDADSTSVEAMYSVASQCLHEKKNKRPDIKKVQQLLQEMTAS
The source made the active and inactive calls.
The reply should be one of these categories: active, inactive

As a guide, the following entries are already answered.
| COMPOUND | MEASUREMENT TARGET | CLASS NAME |
| --- | --- | --- |
| N[C@@H]1CCCN(c2c(/C=C3\SC(=O)NC3=O)cccc2-c2ccccc2)C1 | UniProtKB Q9NWZ3 | inactive |
| COc1cc(N2CCC(N3CCN(C)CC3)CC2)ccc1Nc1ncnc(Nc2ccccc2S(=O)(=O)C(C)C)n1 | UniProtKB Q9NWZ3 | inactive |
| CN1N=C(N)c2cn([C@@H]3O[C@H](COP(=O)(O)O)[C@@H](O)[C@H]3O)c3ncnc1c23 [TRICIRIBINE PHOSPHATE] | UniProtKB Q9NWZ3 | inactive |

Shift focus to the following entry.
Recorded test outcome, item COC(=O)[C@@]1(O)C[C@H]2O[C@]1(C)n1c3ccccc3c3c4c(c5c6ccccc6n2c5c31)C(=O)NC4 [K-252A]
active

###

// values below are Kd; system is LIM domain kinase 2 (Homo sapiens, UniProt P53671)
Sequence (P53671 whole entry, the tested form may be a part): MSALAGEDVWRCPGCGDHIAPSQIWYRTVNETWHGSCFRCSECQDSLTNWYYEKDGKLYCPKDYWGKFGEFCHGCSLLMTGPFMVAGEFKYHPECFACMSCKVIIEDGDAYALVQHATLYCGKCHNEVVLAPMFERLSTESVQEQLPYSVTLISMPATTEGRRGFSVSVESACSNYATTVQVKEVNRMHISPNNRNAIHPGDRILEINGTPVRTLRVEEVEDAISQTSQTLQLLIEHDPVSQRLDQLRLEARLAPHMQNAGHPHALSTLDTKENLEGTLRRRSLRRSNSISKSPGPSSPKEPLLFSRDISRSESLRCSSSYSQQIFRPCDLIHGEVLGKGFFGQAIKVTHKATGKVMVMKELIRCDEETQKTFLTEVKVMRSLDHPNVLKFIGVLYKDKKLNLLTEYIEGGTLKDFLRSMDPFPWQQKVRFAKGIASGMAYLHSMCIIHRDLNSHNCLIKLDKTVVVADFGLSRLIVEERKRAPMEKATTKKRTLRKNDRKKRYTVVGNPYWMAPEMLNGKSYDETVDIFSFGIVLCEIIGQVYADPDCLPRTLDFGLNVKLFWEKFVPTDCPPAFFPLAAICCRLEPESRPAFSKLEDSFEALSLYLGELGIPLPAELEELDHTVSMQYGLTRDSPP
The source made the active and inactive calls.

The cases that follow already have their Kd on record.
| COMPOUND | Kd |
| --- | --- |
| CN1N=C(N)c2cn([C@@H]3O[C@H](COP(=O)(O)O)[C@@H](O)[C@H]3O)c3ncnc1c23 [TRICIRIBINE PHOSPHATE] | > 30 µM (inactive) |
| Cn1cc(-c2ccc3nnc(C(F)(F)c4ccc5ncccc5c4)n3n2)cn1 [JNJ-38877605] | > 30 µM (inactive) |
| CCS(=O)(=O)N1CC(CC#N)(n2cc(-c3ncnc4[nH]ccc34)cn2)C1 [BARICITINIB] | > 30 µM (inactive) |
| CCCS(=O)(=O)Nc1ccc(F)c(C(=O)c2c[nH]c3ncc(-c4ccc(Cl)cc4)cc23)c1F [VEMURAFENIB] | > 30 µM (inactive) |
| O=C(O)[C@]1(Cc2cccc(Nc3nccs3)n2)CC[C@@H](Oc2cccc(Cl)c2F)CC1 [MK-5108] | > 30 µM (inactive) |
| CC[C@H](Nc1ncnc2[nH]cnc12)c1nc2cccc(F)c2c(=O)n1-c1ccccc1 [IDELALISIB] | > 30 µM (inactive) |
| COc1cc(N2CCC(N3CCN(C)CC3)CC2)ccc1Nc1ncnc(Nc2ccccc2S(=O)(=O)C(C)C)n1 [ASP-3026] | 5.31 µM (active) |
| C1=C/COCc2cc(ccc2OCCN2CCCC2)Nc2nccc(n2)-c2cccc(c2)COC/1 [PACRITINIB] | 52.1 µM (active) |
| N[C@@H]1CCCN(c2c(/C=C3\SC(=O)NC3=O)cccc2-c2ccccc2)C1 | > 30 µM (inactive) |
| COC(=O)[C@@]1(O)C[C@H]2O[C@]1(C)n1c3ccccc3c3c4c(c5c6ccccc6n2c5c31)C(=O)NC4 [K-252A] | > 30 µM (inactive) |

Moving on to another compound below.
Item: OCCn1cc(-c2cnc3nnn(Cc4ccc5ncccc5c4)c3n2)cn1 [PF-04217903] Test system: LIM domain kinase 2 (Homo sapiens, UniProt P53671) Read-out: Kd Value: ?
> 30 µM (inactive)

###

MEASUREMENT TARGET: Dual specificity mitogen-activated protein kinase kinase 5 (Homo sapiens)
Sequence (Q13163 whole entry): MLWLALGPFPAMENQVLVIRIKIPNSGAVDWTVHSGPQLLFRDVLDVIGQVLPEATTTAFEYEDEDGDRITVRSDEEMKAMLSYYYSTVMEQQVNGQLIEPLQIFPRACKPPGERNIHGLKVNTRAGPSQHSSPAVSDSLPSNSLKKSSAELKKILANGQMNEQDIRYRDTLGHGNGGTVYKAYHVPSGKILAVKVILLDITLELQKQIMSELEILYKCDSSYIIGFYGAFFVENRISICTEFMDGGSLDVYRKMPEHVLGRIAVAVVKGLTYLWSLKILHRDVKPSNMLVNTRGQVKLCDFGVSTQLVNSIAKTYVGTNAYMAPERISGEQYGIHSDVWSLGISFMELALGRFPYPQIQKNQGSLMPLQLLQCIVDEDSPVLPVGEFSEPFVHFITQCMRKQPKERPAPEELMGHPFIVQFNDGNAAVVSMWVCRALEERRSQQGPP
The source made the active and inactive calls.
Choose the fitting class; nothing outside 1.0 for active, 0.0 for inactive is accepted.

| MOLECULE | CLASS NAME |
| --- | --- |
| COC(=O)N[C@@H](C)CNc1nccc(-c2cn(C(C)C)nc2-c2cc(Cl)cc(NS(C)(=O)=O)c2F)n1 | 0.0 |
| O=C1NC(=O)/C(=C/c2ccc3nccc(-c4ccncc4)c3c2)S1 | 0.0 |
| C[C@@H](c1ccc2nccn2c1)n1nnc2ncc(-c3cnn(C)c3)nc21 | 0.0 |
| Cn1ncc(Cl)c1-c1cc(C(=O)N[C@H](CN)Cc2cccc(F)c2)sc1Cl | 0.0 |
| COc1cc2nccc(Oc3ccc(NC(=O)NC4CC4)c(Cl)c3)c2cc1C(N)=O | 1.0 |

Record request — test call for `C=CC(=O)N1CCC(Oc2cc3c(Nc4ccc(Cl)c(Cl)c4F)ncnc3cc2OC)CC1`
0.0

Name the outcome recorded for O=C(Nc1ccc(-c2ccnc(Nc3ccc(N4CCOCC4)cc3)n2)cc1)C1CCCN1 (stereo not given) in the assay.
0.0

Hey, what did the test say about `C[C@@H]1CN(Cc2ccc(F)cc2)[C@@H](C)CN1C(=O)c1cc2c(C(=O)C(=O)N(C)C)cn(C)c2cc1Cl` ?
0.0

Tell me the recorded outcome of this test for `CCn1c(=O)c(-c2cc[nH]n2)cc2c(C)nc(N)nc21` .
0.0

Assay outcome for `CCN1CCN(Cc2ccc(-c3cc4c(N[C@H](C)c5ccccc5)ncnc4[nH]3)cc2)CC1` : what was it?
1.0

Answer briefly: the call reported for `Cc1ccc(-n2nc(C(C)(C)C)cc2NC(=O)NCc2cc(F)ccc2Oc2ccc3c(cnn3CCO)c2)cc1` in this assay.
0.0

###

MEASUREMENT TARGET: Epithelial discoidin domain-containing receptor 1 (Homo sapiens, UniProt Q08345)
Sequence (Q08345 whole entry, the tested form may be a part): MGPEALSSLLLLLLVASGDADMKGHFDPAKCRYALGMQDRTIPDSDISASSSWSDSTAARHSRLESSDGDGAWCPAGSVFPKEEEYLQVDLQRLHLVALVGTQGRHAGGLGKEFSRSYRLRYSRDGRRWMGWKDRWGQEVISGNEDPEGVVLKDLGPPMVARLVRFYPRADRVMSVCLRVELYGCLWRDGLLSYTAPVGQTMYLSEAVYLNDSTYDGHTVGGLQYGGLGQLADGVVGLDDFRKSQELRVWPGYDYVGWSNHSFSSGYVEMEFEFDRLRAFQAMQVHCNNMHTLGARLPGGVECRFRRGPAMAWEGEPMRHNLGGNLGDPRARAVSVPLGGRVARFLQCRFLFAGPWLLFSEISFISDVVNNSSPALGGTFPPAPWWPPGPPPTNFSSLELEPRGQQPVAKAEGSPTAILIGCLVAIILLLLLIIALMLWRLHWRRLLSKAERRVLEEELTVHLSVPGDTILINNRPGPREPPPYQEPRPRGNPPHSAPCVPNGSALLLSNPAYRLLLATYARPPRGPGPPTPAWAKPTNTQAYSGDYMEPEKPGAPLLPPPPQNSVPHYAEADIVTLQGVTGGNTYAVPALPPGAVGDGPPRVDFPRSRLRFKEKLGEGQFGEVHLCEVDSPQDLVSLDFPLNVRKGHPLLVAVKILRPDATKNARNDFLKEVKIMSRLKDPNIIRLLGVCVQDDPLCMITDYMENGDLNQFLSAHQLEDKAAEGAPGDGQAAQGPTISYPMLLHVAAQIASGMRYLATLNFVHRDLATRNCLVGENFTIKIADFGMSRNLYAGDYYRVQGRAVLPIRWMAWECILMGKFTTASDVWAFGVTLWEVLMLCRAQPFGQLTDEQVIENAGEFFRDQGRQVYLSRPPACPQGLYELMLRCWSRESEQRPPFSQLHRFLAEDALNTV
Calls of active or inactive are those of the source.
Outcomes you can answer with include only these: 1.0 (active), 0.0 (inactive)

Completed entries (count: 6):
| SMILES STRUCTURE | CLASS NAME |
| --- | --- |
| COc1cc(N2CCC(N3CCN(C)CC3)CC2)ccc1Nc1ncnc(Nc2ccccc2S(=O)(=O)C(C)C)n1 | 1.0 |
| Cn1ncc(Cl)c1-c1cc(C(=O)N[C@H](CN)Cc2cccc(F)c2)sc1Cl | 0.0 |
| O=c1sn(-c2cccc3ccccc23)c(=O)n1Cc1ccccc1 | 0.0 |
| Cn1cc(-c2ccc(F)c(C(F)(F)F)c2)nc1C1CCN(c2ncnc3[nH]ncc23)CC1 | 0.0 |
| CC[C@@H]1C(=O)N(C)c2cnc(Nc3ccc(C(=O)N[C@H]4CC[C@H](N5CCN(CC6CC6)CC5)CC4)cc3OC)nc2N1C(C)C | 0.0 |
| C[C@@H](c1ccc2nccn2c1)n1nnc2ncc(-c3cnn(C)c3)nc21 | 0.0 |

Kindly consider the entry below.
Hello, I am checking results. What call was entered for `CC[C@H](Nc1ncnc2[nH]cnc12)c1nc2cccc(F)c2c(=O)n1-c1ccccc1` ?
0.0

###

MEASUREMENT TARGET: Uncharacterized protein FLJ45252 (Homo sapiens)
Sequence (Q6ZSR9 whole entry): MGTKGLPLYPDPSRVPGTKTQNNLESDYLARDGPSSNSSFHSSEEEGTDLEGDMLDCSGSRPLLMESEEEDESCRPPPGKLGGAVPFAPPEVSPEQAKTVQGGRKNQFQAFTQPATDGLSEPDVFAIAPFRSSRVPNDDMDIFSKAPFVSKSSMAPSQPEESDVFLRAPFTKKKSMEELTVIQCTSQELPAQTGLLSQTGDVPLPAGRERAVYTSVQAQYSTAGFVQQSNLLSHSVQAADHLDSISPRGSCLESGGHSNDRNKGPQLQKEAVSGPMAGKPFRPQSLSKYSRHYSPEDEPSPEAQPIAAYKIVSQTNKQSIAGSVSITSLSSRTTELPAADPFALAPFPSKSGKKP
CONDITION LABEL: read-out: Kd apparent; k-562, colo 205, sk-n-be(2) and mv-4-11
Calls of active or inactive are those of the source. No stated cut-off is given here; in the data, actives have a measured Kd and inactives only a lower limit.
Please reply with one of these outcomes: Yes (active), No (inactive)

These solved cases illustrate the format of a correct answer.
| SMILES STRUCTURE | CLASS NAME |
| --- | --- |
| Cn1cc(-c2ccc(F)c(C(F)(F)F)c2)nc1C1CCN(c2ncnc3[nH]ncc23)CC1 | No |
| O=C(O)[C@]1(Cc2cccc(Nc3nccs3)n2)CC[C@@H](Oc2cccc(Cl)c2F)CC1 | No |
| CNC(=O)c1ccc(C)c(-n2c(C)cc(OCc3ccc(F)cc3F)c(Br)c2=O)c1 | No |

Attention now shifts to the item below.
Write down the call the test reported for this compound. Item: `CC(=O)Nc1cccc(-n2c(=O)n(C3CC3)c(=O)c3c(Nc4ccc(I)cc4F)n(C)c(=O)c(C)c32)c1`
No
